These data points were gathered from patent US20210032365A1.

# tested on: T1, human C1s (human, UniProt P09871 16-688)
# T1 construct: Analyte in the Biacore assays; also called hC1s; serum-derived human C1s (CompTech)
# T1 sequence: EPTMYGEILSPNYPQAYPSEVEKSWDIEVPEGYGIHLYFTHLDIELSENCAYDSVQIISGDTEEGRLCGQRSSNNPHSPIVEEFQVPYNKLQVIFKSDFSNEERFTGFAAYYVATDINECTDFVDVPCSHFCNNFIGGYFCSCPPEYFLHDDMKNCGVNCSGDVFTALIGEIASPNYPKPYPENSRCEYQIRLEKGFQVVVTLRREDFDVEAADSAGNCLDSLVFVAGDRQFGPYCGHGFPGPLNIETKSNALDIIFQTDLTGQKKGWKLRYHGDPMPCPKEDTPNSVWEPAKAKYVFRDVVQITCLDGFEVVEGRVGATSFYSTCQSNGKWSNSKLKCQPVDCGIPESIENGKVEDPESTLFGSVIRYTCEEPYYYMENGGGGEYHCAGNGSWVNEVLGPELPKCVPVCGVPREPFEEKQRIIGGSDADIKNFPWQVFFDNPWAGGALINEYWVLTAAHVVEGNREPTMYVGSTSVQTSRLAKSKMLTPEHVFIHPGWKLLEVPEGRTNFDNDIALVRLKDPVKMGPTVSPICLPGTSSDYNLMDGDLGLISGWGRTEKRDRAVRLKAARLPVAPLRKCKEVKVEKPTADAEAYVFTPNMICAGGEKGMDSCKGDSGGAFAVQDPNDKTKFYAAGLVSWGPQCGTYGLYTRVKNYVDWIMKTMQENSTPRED
# procedure details: SPR (Biacore T200, 37C), Ab captured on protein A/G; pH 5.8, 1.2 mM Ca
assay readout: kon (M⁻¹ s⁻¹)
Give the value, in units of M⁻¹ s⁻¹, as a plain number.

query: // kon lookup, key: C1_IPN92H0194-SG4GK/IPN93L0024-SK1 (antibody, human IgG4 S228P, kappa, name in Kabat numbering, V domains shown, Substitutions from IPN009VH2, Kabat numbering; also called IPN92H0194/IPN93L0024) VH: EVMLVESGGGLVKPGGSLRLSCAASGFTFSNYAMSWVRQAPGKGLEWVATISSGGSHTYYLDSVKERFTISRDNSKDTLYLQMNSLRAEDTALYYCARLFTGHAMDYWGQGTLVTVSS VL: QIVLTQSPATLSLSPGERATLSCTASSSVSSSYLHWYQQKPGKAPKLWIYSTSNLASGVPSRFSGSGSGTDYTLTISSLQPEDFATYYCHQYYRLHPITFGQGTKLEIKR
result: 751000

query: And the next one, C1_IPN92H0282-SG4GK/IPN93L0091-SK1 (antibody, human IgG4 S228P, kappa, name in Kabat numbering, V domains shown, Substitutions from IPN009VH2 / IPN009VK3, Kabat numbering; also called IPN92H0282/IPN93L0091) VH: EVMLVESGGGLVKPGGSLRLSCAASGFTFSNYAMSWVRQAPGKGLEWVATISSGGSHTYELDSVDERFTISRDNSKDTLYLQMNSLRAEDTALYYCARLFTKHAMDYWGQGTLVTVSS VL: QIVLTQSPATLSLSPGERATLSCTASSSVSSSRLHWYQQKPGKAPKLWIYSTSNLASGVPSRFSGSGSGTDYTLTISSLQPEDFATYYCHQYYRLHPITFGQGTKLEIKR ?
result: 445000

query: And the next one, C1_IPN92H0080-SG4GK/IPN93L0024-SK1 (antibody, human IgG4 S228P, kappa, name in Kabat numbering, V domains shown, Substitutions from IPN009VH2, Kabat numbering; also called IPN92H0080/IPN93L0024) VH: EVMLVESGGGLVKPGGSLRLSCAASGFTFSNRAMSWVRQAPGKGLEWVATISSGGSHTYYLDSVKGRFTISRDNSKDTLYLQMNSLRAEDTALYYCARLFTGHAMDYWGQGTLVTVSS VL: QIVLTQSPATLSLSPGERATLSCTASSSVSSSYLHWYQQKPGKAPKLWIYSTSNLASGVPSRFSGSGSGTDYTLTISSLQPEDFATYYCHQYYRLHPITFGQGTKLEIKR ?
result: 814000

query: And the next one, C1_IPN92H0232-SG4GK/IPN93L0024-SK1 (antibody, human IgG4 S228P, kappa, name in Kabat numbering, V domains shown, Substitutions from IPN009VH2, Kabat numbering; also called IPN92H0232/IPN93L0024) VH: EVMLVESGGGLVKPGGSLRLSCAASGFTFSNYAMSWVRQAPGKGLEWVATISSGGSHTYYLDSVKGRFTISRDNSKDTLYLQMNSLRAEDTALYYCARLFTRHAMDYWGQGTLVTVSS VL: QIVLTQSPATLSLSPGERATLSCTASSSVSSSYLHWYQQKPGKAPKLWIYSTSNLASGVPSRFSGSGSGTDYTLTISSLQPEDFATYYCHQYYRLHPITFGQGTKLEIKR ?
result: 570000

query: And the next one, C1_IPN92H0157-SG4GK/IPN93L0024-SK1 (antibody, human IgG4 S228P, kappa, name in Kabat numbering, V domains shown, Substitutions from IPN009VH2, Kabat numbering; also called IPN92H0157/IPN93L0024) VH: EVMLVESGGGLVKPGGSLRLSCAASGFTFSNYAMSWVRQAPGKGLEWVATISSGGSHTRYLDSVKGRFTISRDNSKDTLYLQMNSLRAEDTALYYCARLFTGHAMDYWGQGTLVTVSS VL: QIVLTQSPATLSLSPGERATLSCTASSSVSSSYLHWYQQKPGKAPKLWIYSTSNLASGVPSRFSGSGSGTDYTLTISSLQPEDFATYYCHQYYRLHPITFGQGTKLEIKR ?
result: 636000
